system: SR (Other Blood Carcinomas); assay: combination Emax (second highest fraction inhibited in the dose matrix, 72 h); higher = more inhibition; extreme values may be limits of the assay
Would you mind telling me the reported combination Emax of each entry?
Lab note: record just the number, no unit beside it.

Consider the molecule shown here: COc1nnc2ccc(N3CCC(c4ccc(OCCN5CCN(C)C(=O)[C@H]5C)cc4)CC3)nn12 [AZD5153] + C=CCn1c(=O)c2cnc(Nc3ccc(N4CCN(C)CC4)cc3)nc2n1-c1cccc(C(C)(C)O)n1 [AZD1775] (first compound max 1 µM, partner max 1 µM) What is its recorded combination Emax?
0.96

Consider the molecule shown here: Cn1cnc2c(F)c(Nc3ccc(Br)cc3Cl)c(C(=O)NOCCO)cc21 [Selumetinib] + CCN(CCO)CCCOc1ccc2c(Nc3cc(CC(=O)Nc4cccc(F)c4)[nH]n3)ncnc2c1 [AZD2811] (first compound max 10 µM, 7x7, partner max 1 µM) What is its recorded combination Emax?
0.942

Consider the molecule shown here: CN(CCO)CC[C@H](CSc1ccccc1)Nc1ccc(S(=O)(=O)NC(=O)c2ccc(N3CCC([C@@H](O)c4ccccc4-c4ccc(Cl)cc4)CC3)cc2)cc1S(=O)(=O)C(F)(F)F [AZD4320] + C=CCn1c(=O)c2cnc(Nc3ccc(N4CCN(C)CC4)cc3)nc2n1-c1cccc(C(C)(C)O)n1 [AZD1775] (first compound max 1 µM, partner max 1 µM) What is its recorded combination Emax?
1

Consider the molecule shown here: CC(=O)Nc1cccc(-n2c(=O)n(C3CC3)c(=O)c3c(Nc4ccc(I)cc4F)n(C)c(=O)c(C)c32)c1 [Trametinib] + Cc1nc(-c2cn3c(n2)-c2ccc(-c4cnn(C(C)(C)C(N)=O)c4)cc2OCC3)n(C(C)C)n1 [Taselisib] (first compound max 1 µM, 7x7, partner max 10 µM) What is its recorded combination Emax?
0.719

Consider the molecule shown here: COc1cccc2c1C(=O)c1c(O)c3c(c(O)c1C2=O)C[C@@](O)(C(=O)CO)C[C@@H]3O[C@H]1C[C@H](N)[C@H](O)[C@H](C)O1 [Doxorubicin] + Cc1cc2ncnn2cc1Nc1ncc2c(n1)n(C1CCOCC1)c(=O)n2C [AZD7648] (first compound max 1 µM, 7x7, partner max 10 µM) What is its recorded combination Emax?
0.994

Consider the molecule shown here: COc1cccc(OCCCN)c1-c1cc(Nc2cnc(C#N)cn2)n[nH]1 [Prexasertib] + Cc1cc2ncnn2cc1Nc1ncc2c(n1)n(C1CCOCC1)c(=O)n2C [AZD7648] (first compound max 1 µM, 7x7, partner max 10 µM) What is its recorded combination Emax?
1

Consider the molecule shown here: COc1nnc2ccc(N3CCC(c4ccc(OCCN5CCN(C)C(=O)[C@H]5C)cc4)CC3)nn12 [AZD5153] + Cn1cnc2c(F)c(Nc3ccc(Br)cc3Cl)c(C(=O)NOCCO)cc21 [Selumetinib] (first compound max 1 µM, 7x7, partner max 10 µM) What is its recorded combination Emax?
0.675

* * *

tested on: SU-DHL-8 (B-Cell Non-Hodgkin's Lymphoma); assay: Bliss excess, mean over the matrix (fraction); higher = more synergy
property measured: Bliss excess
Lab note: record just the number, no unit beside it.

Consider the molecule shown here: COc1cccc(OCCCN)c1-c1cc(Nc2cnc(C#N)cn2)n[nH]1 [Prexasertib] + CN(C)CCCOc1ccc(-c2ccc3ncc4c(c3c2)n(C2CCOCC2)c(=O)n4C)cn1 [AZD0156] (first compound max 1 µM, 7x7, partner max 1 µM) What is its recorded Bliss excess?
-0.0553

Consider the molecule shown here: Cc1c2c(nn1C)CSCc1cc(n(C)n1)CSc1cc(c3ccccc3c1)OCCCc1c(C(=O)O)n(C)c3c-2c(Cl)ccc13 [AZD5991] + CCN(CCO)CCCOc1ccc2c(Nc3cc(CC(=O)Nc4cccc(F)c4)[nH]n3)ncnc2c1 [AZD2811] (first compound max 1 µM, 7x7, partner max 1 µM) What is its recorded Bliss excess?
0.0416

* * *

system: L-540 (Hodgkin's Lymphoma); assay: Bliss excess, mean over the matrix (fraction); higher = more synergy
property measured: Bliss excess

Consider the compound shown here: CN(CCO)CC[C@H](CSc1ccccc1)Nc1ccc(S(=O)(=O)NC(=O)c2ccc(N3CCC([C@@H](O)c4ccccc4-c4ccc(Cl)cc4)CC3)cc2)cc1S(=O)(=O)C(F)(F)F [AZD4320] + Cn1cnc2c(F)c(Nc3ccc(Br)cc3Cl)c(C(=O)NOCCO)cc21 [Selumetinib] (first compound max 1 µM, 7x7, partner max 3 µM) What is its recorded Bliss excess?
-0.0184

Consider the compound shown here: CC(=O)c1c(C)c2cnc(Nc3ccc(N4CCNCC4)cn3)nc2n(C2CCCC2)c1=O [Palbociclib] + CC1(C)CCC(CN2CCN(c3ccc(C(=O)NS(=O)(=O)c4ccc(NCC5CCOCC5)c([N+](=O)[O-])c4)c(Oc4cnc5[nH]ccc5c4)c3)CC2)=C(c2ccc(Cl)cc2)C1 [Venetoclax] (first compound max 10 µM, 7x7, partner max 1 µM) What is its recorded Bliss excess?
-0.0852

Consider the compound shown here: Cc1c2c(nn1C)CSCc1cc(n(C)n1)CSc1cc(c3ccccc3c1)OCCCc1c(C(=O)O)n(C)c3c-2c(Cl)ccc13 [AZD5991] + Cn1cnc2c(F)c(Nc3ccc(Br)cc3Cl)c(C(=O)NOCCO)cc21 [Selumetinib] (first compound max 1 µM, 7x7, partner max 3 µM) What is its recorded Bliss excess?
0.0007

* * *

tested on: NCI-H847 (Small Cell Lung Carcinoma); test: Bliss excess, mean over the matrix (fraction); higher = more synergy
property measured: Bliss excess
Lab note: record just the number, no unit beside it.

Consider the molecule shown here: CCc1c2c(nc3ccc(O)cc13)-c1cc3c(c(=O)n1C2)COC(=O)[C@]3(O)CC [SN-38] + O=C(c1cc(Cc2n[nH]c(=O)c3ccccc23)ccc1F)N1CCN(C(=O)C2CC2)CC1 [Olaparib] (first compound max 0.3 µM, 7x7, partner max 10 µM) What is its recorded Bliss excess?
0.0304

Consider the molecule shown here: CN(CCO)CC[C@H](CSc1ccccc1)Nc1ccc(S(=O)(=O)NC(=O)c2ccc(N3CCC([C@@H](O)c4ccccc4-c4ccc(Cl)cc4)CC3)cc2)cc1S(=O)(=O)C(F)(F)F [AZD4320] + C[C@@H](Nc1cc(F)cc(F)c1)c1cc(C(=O)N(C)C)cc2c(=O)cc(N3CCOCC3)oc12 [AZD8186] (first compound max 1 µM, 7x7, partner max 3 µM) What is its recorded Bliss excess?
0.0851

* * *

test system: WM-115 (Melanoma); experiment: Bliss excess, mean over the matrix (fraction); higher = more synergy
property measured: Bliss excess

Consider the molecule shown here: CCN(CCO)CCCOc1ccc2c(Nc3cc(CC(=O)Nc4cccc(F)c4)[nH]n3)ncnc2c1 [AZD2811] + O=C(c1cc(Cc2n[nH]c(=O)c3ccccc23)ccc1F)N1CCN(C(=O)C2CC2)CC1 [Olaparib] (first compound max 1 µM, 7x7, partner max 10 µM) What is its recorded Bliss excess?
-0.0343

Consider the molecule shown here: Cc1c2c(nn1C)CSCc1cc(n(C)n1)CSc1cc(c3ccccc3c1)OCCCc1c(C(=O)O)n(C)c3c-2c(Cl)ccc13 [AZD5991] + CN(C)CCCOc1ccc(-c2ccc3ncc4c(c3c2)n(C2CCOCC2)c(=O)n4C)cn1 [AZD0156] (first compound max 1 µM, 7x7, partner max 1 µM) What is its recorded Bliss excess?
-0.0136

* * *

test system: CAMA-1 (Breast Carcinoma); assay: Bliss excess, mean over the matrix (fraction); higher = more synergy
Would you mind telling me the reported Bliss excess of each entry?

Consider the compound shown here: COc1nnc2ccc(N3CCC(c4ccc(OCCN5CCN(C)C(=O)[C@H]5C)cc4)CC3)nn12 [AZD5153] + Cn1cnc2c(F)c(Nc3ccc(Br)cc3Cl)c(C(=O)NOCCO)cc21 [Selumetinib] (first compound max 1 µM, 7x7, partner max 10 µM) What is its recorded Bliss excess?
0.0022

Consider the compound shown here: CC1(C)CCC(CN2CCN(c3ccc(C(=O)NS(=O)(=O)c4ccc(NCC5CCOCC5)c([N+](=O)[O-])c4)c(Oc4cnc5[nH]ccc5c4)c3)CC2)=C(c2ccc(Cl)cc2)C1 [Venetoclax] + CS(=O)(=O)CCNCc1ccc(-c2ccc3ncnc(Nc4ccc(OCc5cccc(F)c5)c(Cl)c4)c3c2)o1 [Lapatinib] (first compound max 1 µM, 7x7, partner max 10 µM) What is its recorded Bliss excess?
-0.0271

Consider the compound shown here: COc1cccc(OCCCN)c1-c1cc(Nc2cnc(C#N)cn2)n[nH]1 [Prexasertib] + C[C@@H]1COCCN1C2=NC(=NC(=C2)C3(CC3)[S@](=N)(=O)C)C4=C5C=CNC5=NC=C4 [AZD6738] (first compound max 1 µM, 7x7, partner max 10 µM) What is its recorded Bliss excess?
-0.0484

Consider the compound shown here: C[C@@H](Oc1cc(-c2cnn(C3CCNCC3)c2)cnc1N)c1c(Cl)ccc(F)c1Cl [Crizotinib] + Cn1cnc2c(F)c(Nc3ccc(Br)cc3Cl)c(C(=O)NOCCO)cc21 [Selumetinib] (first compound max 10 µM, 7x7, partner max 10 µM) What is its recorded Bliss excess?
-0.042

Consider the compound shown here: CN(CCO)CC[C@H](CSc1ccccc1)Nc1ccc(S(=O)(=O)NC(=O)c2ccc(N3CCC([C@@H](O)c4ccccc4-c4ccc(Cl)cc4)CC3)cc2)cc1S(=O)(=O)C(F)(F)F [AZD4320] + C[C@@H]1COCCN1C2=NC(=NC(=C2)C3(CC3)[S@](=N)(=O)C)C4=C5C=CNC5=NC=C4 [AZD6738] (first compound max 1 µM, 7x7, partner max 10 µM) What is its recorded Bliss excess?
-0.0016

Consider the compound shown here: COc1nnc2ccc(N3CCC(c4ccc(OCCN5CCN(C)C(=O)[C@H]5C)cc4)CC3)nn12 [AZD5153] + Cc1c2c(nn1C)CSCc1cc(n(C)n1)CSc1cc(c3ccccc3c1)OCCCc1c(C(=O)O)n(C)c3c-2c(Cl)ccc13 [AZD5991] (first compound max 1 µM, 7x7, partner max 1 µM) What is its recorded Bliss excess?
0.0283

Consider the compound shown here: Cc1cc2ncnn2cc1Nc1ncc2c(n1)n(C1CCOCC1)c(=O)n2C [AZD7648] + C[C@@H]1COCCN1C2=NC(=NC(=C2)C3(CC3)[S@](=N)(=O)C)C4=C5C=CNC5=NC=C4 [AZD6738] (first compound max 10 µM, 7x7, partner max 10 µM) What is its recorded Bliss excess?
-0.0631

Consider the compound shown here: CC(=O)c1c(C)c2cnc(Nc3ccc(N4CCNCC4)cn3)nc2n(C2CCCC2)c1=O [Palbociclib] + Cn1cnc2c(F)c(Nc3ccc(Br)cc3Cl)c(C(=O)NOCCO)cc21 [Selumetinib] (first compound max 10 µM, 7x7, partner max 10 µM) What is its recorded Bliss excess?
-0.027

Consider the compound shown here: C=CCn1c(=O)c2cnc(Nc3ccc(N4CCN(C)CC4)cc3)nc2n1-c1cccc(C(C)(C)O)n1 [AZD1775] + O=C(c1cc(Cc2n[nH]c(=O)c3ccccc23)ccc1F)N1CCN(C(=O)C2CC2)CC1 [Olaparib] (first compound max 1 µM, partner max 10 µM) What is its recorded Bliss excess?
-0.0452

Consider the compound shown here: NC1(C(=O)N[C@@H](CCO)c2ccc(Cl)cc2)CCN(c2ncnc3[nH]ccc23)CC1 [Capivasertib] + CCN(CCO)CCCOc1ccc2c(Nc3cc(CC(=O)Nc4cccc(F)c4)[nH]n3)ncnc2c1 [AZD2811] (first compound max 10 µM, 7x7, partner max 1 µM) What is its recorded Bliss excess?
0.0051

Consider the compound shown here: C[C@@H](Nc1cc(F)cc(F)c1)c1cc(C(=O)N(C)C)cc2c(=O)cc(N3CCOCC3)oc12 [AZD8186] + C1CN(CCC1(C(=O)N[C@@H](CCO)C2=CC=C(C=C2)Cl)N)C3=NC=NC4=C3C=CN4 [AZD5363] (first compound max 10 µM, 7x7, partner max 10 µM) What is its recorded Bliss excess?
0.0234

Consider the compound shown here: CN(CCO)CC[C@H](CSc1ccccc1)Nc1ccc(S(=O)(=O)NC(=O)c2ccc(N3CCC([C@@H](O)c4ccccc4-c4ccc(Cl)cc4)CC3)cc2)cc1S(=O)(=O)C(F)(F)F [AZD4320] + C[C@@H](Nc1cc(F)cc(F)c1)c1cc(C(=O)N(C)C)cc2c(=O)cc(N3CCOCC3)oc12 [AZD8186] (first compound max 1 µM, 7x7, partner max 3 µM) What is its recorded Bliss excess?
0.0218

Consider the compound shown here: Cc1c2c(nn1C)CSCc1cc(n(C)n1)CSc1cc(c3ccccc3c1)OCCCc1c(C(=O)O)n(C)c3c-2c(Cl)ccc13 [AZD5991] + Cn1cnc2c(F)c(Nc3ccc(Br)cc3Cl)c(C(=O)NOCCO)cc21 [Selumetinib] (first compound max 1 µM, 7x7, partner max 3 µM) What is its recorded Bliss excess?
-0.035
